Sourced from ChEMBL document CHEMBL1149632

experiment: Antineoplastic cytotoxicity against human MEL28 cells after 72 hrs by SRB method; format: functional; details: SK-MEL-28, 72 h
# GI50 per record follows
The response must be a number in µM with no trailing unit.

C=C1CC[C@@H]2[C@](C)(CCC[C@]2(C)C(=O)OC)[C@]1(O)CCc1ccc2c(OCc3ccccc3)ccc(OCc3ccccc3)c2c1 :: 9
C=C1CC[C@@H]2[C@](C)(CCC[C@]2(C)C(=O)O)[C@H]1CCc1ccc2c(OC(C)=O)ccc(OC(C)=O)c2c1 :: 0.24
C=C1CC[C@@H]2[C@](C)(CCC[C@]2(C)C(=O)O)[C@H]1CCC1=CCc2c(OC(C)=O)ccc(OC(C)=O)c2C1 :: 5
C=C1CC[C@@H]2[C@](C)(CCC[C@]2(C)C(=O)OC)[C@H]1CCc1ccc2c(c1)C(=O)C=CC2=O :: 0.2
C=C1CC[C@@H]2[C@](C)(CCC[C@]2(C)C(=O)OC)[C@H]1CCc1ccc2c(OC(C)=O)ccc(OC(C)=O)c2c1 :: 0.12

(Q) GI50 lookup needed for C=C1CC[C@@H]2[C@](C)(CCC[C@]2(C)C(=O)OC)[C@H]1CCC1=CCc2c(OC(C)=O)ccc(OC(C)=O)c2C1 , thanks.
(A) 0.68

(Q) GI50 lookup needed for C=C1CC[C@@H]2[C@](C)(CCC[C@]2(C)C(=O)O)[C@H]1CCc1ccc2c(c1)C(=O)C=CC2=O , thanks.
(A) 5.7

----------
assay: Antineoplastic cytotoxicity against human MEL28 cells after 72 hrs by SRB method; type: functional; conditions: SK-MEL-28, 72 h
# GI50 per record follows

Answered examples (5):
C=C1[C@H](O)C[C@@H]2[C@](C)(CCC[C@]2(C)C(=O)OC)[C@H]1CCc1ccc2c(OCc3ccccc3)ccc(OCc3ccccc3)c2c1 :: > 4.9 µM
C=C1CC[C@H]2[C@@](C)(CCC[C@@]2(C)C(=O)OC)[C@@H]1CCc1ccc2c(c1)C(=O)c1cc(CC[C@H]3C(=C)CC[C@@H]4[C@]3(C)CCC[C@]4(C)C(=O)OC)ccc1C2=O :: > 4.1 µM
C=C1[C@H](O)C[C@@H]2[C@](C)(CCC[C@]2(C)C(=O)OC)[C@H]1CCc1ccc2c(OC)ccc(OC)c2c1 :: > 6.4 µM
COC(=O)[C@@]1(C)CCC[C@]2(C)C(CCc3ccc4c(OC)ccc(OC)c4c3)=C(OOC(C)(C)C)CC[C@@H]12 :: > 18.6 µM
C=C1CC[C@@H]2[C@](C)(CCC[C@]2(C)C(=O)OC)[C@H]1CCc1ccc2c(OCc3ccccc3)ccc(OCc3ccccc3)c2c1 :: > 5 µM

(Q) GI50 lookup needed for COC(=O)[C@@]1(C)CCC[C@]2(C)C(CCc3ccc4c(OC)ccc(OC)c4c3)=C(C)CC[C@@H]12 , thanks.
(A) > 6.7 µM

(Q) GI50 lookup needed for C=C1CC[C@@H]2[C@](C)(CCC[C@]2(C)C(=O)OC)[C@H]1CCc1ccc2c(OC)ccc(OC)c2c1 , thanks.
(A) > 6.7 µM
